Reference source: patent US7135572B2

Reported Inhibitory effects of cyclooxygenase (COX): COX-2 values follow for various compounds
TEST SYSTEM: cyclooxygenase-2 (Mus musculus, UniProt Q05769)
Construct: endogenous in cells; host or cells: Raw 264.7 (Korean cell line bank), aspirin-pretreated, induced with interferon gamma and LPS
Sequence (Q05769 18-604): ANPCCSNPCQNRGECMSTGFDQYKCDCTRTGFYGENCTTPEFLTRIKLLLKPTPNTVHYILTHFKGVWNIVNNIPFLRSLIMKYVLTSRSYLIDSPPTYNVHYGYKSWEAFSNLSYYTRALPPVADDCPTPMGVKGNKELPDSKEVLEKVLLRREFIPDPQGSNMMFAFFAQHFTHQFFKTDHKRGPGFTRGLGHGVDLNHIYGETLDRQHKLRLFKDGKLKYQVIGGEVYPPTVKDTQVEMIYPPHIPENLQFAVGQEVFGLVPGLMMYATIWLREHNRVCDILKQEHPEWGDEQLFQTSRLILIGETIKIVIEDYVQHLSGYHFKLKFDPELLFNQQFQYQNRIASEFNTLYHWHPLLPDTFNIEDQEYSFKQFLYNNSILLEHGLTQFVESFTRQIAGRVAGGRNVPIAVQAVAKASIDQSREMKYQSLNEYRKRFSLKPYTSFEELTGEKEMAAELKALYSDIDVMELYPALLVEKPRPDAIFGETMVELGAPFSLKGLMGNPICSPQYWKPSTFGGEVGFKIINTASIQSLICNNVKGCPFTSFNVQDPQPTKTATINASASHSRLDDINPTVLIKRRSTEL
RUN DESCRIPTION: Inhibition of cyclooxygenase-2 in Raw 264.7 cells treated with interferon γ and LPS (PGE2 EIA)
Type: cell-based
CONDITION DETAILS: 100 nM; Raw 264.7 cells
TEST READOUT: Inhibitory effects of cyclooxygenase (COX): COX-2 (% inhibition)

CHEM SMILES | TEST SYSTEM | TEST RESULT
Cc1nc(-c2ccc(F)cc2)n(-c2ccc(S(N)(=O)=O)cc2)n1 | cyclooxygenase-2 (Mus musculus, UniProt Q05769) | 34.4
COc1ccc(-c2nc(C)nn2-c2ccc(S(N)(=O)=O)cc2)cc1 | cyclooxygenase-2 (Mus musculus, UniProt Q05769) | 99.2
Cc1nc(-c2cccc(Br)c2)n(-c2ccc(S(N)(=O)=O)cc2)n1 | cyclooxygenase-2 (Mus musculus, UniProt Q05769) | 89.2
COc1ccc(-c2nc(C)nn2-c2ccc(S(N)(=O)=O)cc2)cc1OC | cyclooxygenase-2 (Mus musculus, UniProt Q05769) | 55.8
Cc1ccc(-c2nc(C)nn2-c2ccc(S(N)(=O)=O)cn2)cc1 | cyclooxygenase-2 (Mus musculus, UniProt Q05769) | 37.5
COc1ccccc1-c1nc(C)nn1-c1ccc(S(N)(=O)=O)cc1 | cyclooxygenase-2 (Mus musculus, UniProt Q05769) | 25.2
Cc1nc(-c2cccc(F)c2)n(-c2ccc(S(N)(=O)=O)cc2)n1 | cyclooxygenase-2 (Mus musculus, UniProt Q05769) | 55.0
Cc1nc(-c2ccc(Cl)cc2)n(-c2ccc(S(C)(=O)=O)cc2)n1 | cyclooxygenase-2 (Mus musculus, UniProt Q05769) | 38.8
Cc1nc(-c2ccccc2)n(-c2ccc(S(C)(=O)=O)cc2)n1 | cyclooxygenase-2 (Mus musculus, UniProt Q05769) | 38.0
Cc1nc(-c2ccc(Br)cc2)n(-c2ccc(S(C)(=O)=O)cn2)n1 | cyclooxygenase-2 (Mus musculus, UniProt Q05769) | 99.8
COc1cc(OC)cc(-c2nc(C)nn2-c2ccc(S(N)(=O)=O)cc2)c1 | cyclooxygenase-2 (Mus musculus, UniProt Q05769) | 56.1
Cc1ccc(-c2nc(C)nn2-c2ccc(S(N)(=O)=O)cc2)cc1 | cyclooxygenase-2 (Mus musculus, UniProt Q05769) | 53.3
Cc1nc(-c2ccc(Cl)cc2)n(-c2ccc(S(N)(=O)=O)cc2)n1 | cyclooxygenase-2 (Mus musculus, UniProt Q05769) | 74.1
Cc1nc(-c2ccc(Br)cc2)n(-c2ccc(S(C)(=O)=O)cc2)n1 | cyclooxygenase-2 (Mus musculus, UniProt Q05769) | 29.8
Cc1nc(-c2ccc(F)cc2)n(-c2ccc(S(N)(=O)=O)cn2)n1 | cyclooxygenase-2 (Mus musculus, UniProt Q05769) | 28.8
COc1cc(OC)cc(-c2nc(C)nn2-c2ccc(S(N)(=O)=O)cn2)c1 | cyclooxygenase-2 (Mus musculus, UniProt Q05769) | 29.8
Cc1nc(-c2cccc(Cl)c2)n(-c2ccc(S(N)(=O)=O)cc2)n1 | cyclooxygenase-2 (Mus musculus, UniProt Q05769) | 52.6
Cc1nc(-c2ccccc2)n(-c2ccc(S(N)(=O)=O)cn2)n1 | cyclooxygenase-2 (Mus musculus, UniProt Q05769) | 99.8
Cc1nc(-c2ccc(F)cc2)n(-c2ccc(S(C)(=O)=O)cc2)n1 | cyclooxygenase-2 (Mus musculus, UniProt Q05769) | 47.7
